Values from patent US11578080B2

Molecular target: human TRPA1 ion channel (Homo sapiens (Human), UniProt O75762)
Sequence (O75762 whole entry): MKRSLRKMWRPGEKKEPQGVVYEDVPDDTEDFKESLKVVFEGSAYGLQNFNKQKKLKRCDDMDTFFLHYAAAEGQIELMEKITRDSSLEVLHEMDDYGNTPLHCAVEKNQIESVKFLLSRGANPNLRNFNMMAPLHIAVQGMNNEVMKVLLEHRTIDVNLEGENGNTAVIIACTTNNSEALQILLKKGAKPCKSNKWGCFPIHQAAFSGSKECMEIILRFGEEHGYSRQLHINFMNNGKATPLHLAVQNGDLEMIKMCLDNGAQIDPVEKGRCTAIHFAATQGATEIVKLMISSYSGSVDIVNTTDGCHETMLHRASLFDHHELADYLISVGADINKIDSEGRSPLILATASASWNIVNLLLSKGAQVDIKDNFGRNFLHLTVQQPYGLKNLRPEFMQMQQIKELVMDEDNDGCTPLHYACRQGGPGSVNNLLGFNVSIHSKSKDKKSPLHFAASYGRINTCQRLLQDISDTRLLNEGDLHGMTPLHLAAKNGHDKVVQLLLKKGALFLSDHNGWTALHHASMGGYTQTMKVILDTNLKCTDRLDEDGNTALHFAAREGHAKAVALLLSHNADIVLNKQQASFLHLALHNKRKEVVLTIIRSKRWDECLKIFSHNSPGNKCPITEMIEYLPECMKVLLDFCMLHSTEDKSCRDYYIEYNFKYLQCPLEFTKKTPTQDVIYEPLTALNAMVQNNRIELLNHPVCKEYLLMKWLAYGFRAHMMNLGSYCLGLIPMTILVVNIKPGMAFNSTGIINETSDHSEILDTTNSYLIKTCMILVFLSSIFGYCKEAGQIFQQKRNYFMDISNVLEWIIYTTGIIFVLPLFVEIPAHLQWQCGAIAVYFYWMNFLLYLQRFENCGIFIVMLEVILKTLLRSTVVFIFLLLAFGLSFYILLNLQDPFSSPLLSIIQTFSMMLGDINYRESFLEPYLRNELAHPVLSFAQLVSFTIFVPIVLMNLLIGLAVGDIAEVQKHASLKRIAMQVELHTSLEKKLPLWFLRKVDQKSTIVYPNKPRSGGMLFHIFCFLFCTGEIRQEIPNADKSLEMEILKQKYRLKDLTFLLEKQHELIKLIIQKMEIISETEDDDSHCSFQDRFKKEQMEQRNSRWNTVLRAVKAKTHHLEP
Assay: Assay A: TRPA1 assay (FLIPR calcium, AITC agonism, HEK293 over-expressing human TRPA1)
Format: cell-based
Details: HEK293 over-expressing human TRPA1, AITC 10 μM, FLIPRtetra; read-out: hTRPA1 IC50
Method: A human HEK293 cell line over-expressing the human TRPA1 ion channel (Perkin Elmer, Product No. AX-004-PCL) was used as a test system for compound efficacy and potency. Compound activity was determined by measuring the effect of compounds on intracellular calcium concentration induced by AITC (Allylisothiocyanat) agonism in a FLIPRtetra system (Molecular Devices). The cells were obtained as frozen cells in cryo-vials and stored until use at −150° C. […]
measurement_kind: IC50 (nM)

Please review the entries below; each comes with its answer.
mol_smiles: Cc1c(C(N)=O)sc2ncn(Cc3nnn(C[C@H](O)c4ccc(Br)cc4)n3)c(=O)c12
unit_tag: nM
IC50: 12
--
mol_smiles: Cc1c(C(N)=O)sc2ncn(Cc3nnn(C[C@H](O)c4cc5cc(Cl)ccc5o4)n3)c(=O)c12
unit_tag: nM
IC50: 12
--
mol_smiles: Cc1ccc([C@@H](O)Cn2nnc(Cn3cnc4sc(C(N)=O)c(C)c4c3=O)n2)cc1
unit_tag: nM
IC50: 21

(1) Cc1c(C(N)=O)sc2ncn(Cc3nnn(C[C@H](O)c4cc5ccc(F)cc5o4)n3)c(=O)c12
(2) CNC(=O)c1sc2ncn(Cc3nnn(C[C@H](O)c4ccc(Cl)s4)n3)c(=O)c2c1C
q: Problem: Given the entries 1 and 2 , determine which has the lower reported IC50. Choose, then provide that item's label.
a: 1
(1: 17 nM, 2: 37 nM)

----------
biological target: human TRPA1 ion channel (Homo sapiens (Human)); test: Assay A: TRPA1 assay (FLIPR calcium, AITC agonism, HEK293 over-expressing human TRPA1); conditions: HEK293 over-expressing human TRPA1, AITC 10 μM, FLIPRtetra; read-out: hTRPA1 IC50
measurement_kind: IC50 (nM)

Please review the entries below; each comes with its answer.
mol_smiles: CNC(=O)c1sc2ncn(Cc3nnn(C[C@H](O)c4ccc5c(c4)OCO5)n3)c(=O)c2c1C
tgt: human TRPA1 ion channel (Homo sapiens (Human))
IC50 (nM): 76

mol_smiles: Cc1c(C(N)=O)sc2ncn(Cc3nnn(C[C@H](O)c4cc5ccccc5s4)n3)c(=O)c12
tgt: human TRPA1 ion channel (Homo sapiens (Human))
IC50 (nM): 7

mol_smiles: Cc1c(C(N)=O)sc2ncn(Cc3nnn(C[C@H](O)c4cc5cc(F)ccc5o4)n3)c(=O)c12
tgt: human TRPA1 ion channel (Homo sapiens (Human))
IC50 (nM): 25

mol_smiles: Cc1c(C(N)=O)sc2ncn(Cc3nnn(C[C@H](O)c4cc5ccc(Cl)cc5o4)n3)c(=O)c12
tgt: human TRPA1 ion channel (Homo sapiens (Human))
IC50 (nM): 15

mol_smiles: CN1CCc2c(sc3ncn(Cc4nnn(C[C@H](O)c5ccc(Cl)cc5)n4)c(=O)c23)C1=O
tgt: human TRPA1 ion channel (Homo sapiens (Human))
IC50 (nM): 16

mol_smiles: N#Cc1ccc([C@@H](O)Cn2nnc(Cn3cnc4sc5c(c4c3=O)CCNC5=O)n2)s1
tgt: human TRPA1 ion channel (Homo sapiens (Human))
IC50 (nM): 80

mol_smiles: Cc1c(C(N)=O)sc2ncn(Cc3nnn(C[C@H](O)c4ccc(Cl)s4)n3)c(=O)c12
tgt: human TRPA1 ion channel (Homo sapiens (Human))
IC50 (nM): 12

mol_smiles: Cc1c(C(N)=O)sc2ncn(Cc3nnn(C[C@H](O)c4ccc(F)c(F)c4)n3)c(=O)c12
tgt: human TRPA1 ion channel (Homo sapiens (Human))
IC50 (nM): 74

(a) O=C1NCCc2c1sc1ncn(Cc3nnn(C[C@H](O)c4ccc(Cl)cc4)n3)c(=O)c21
(b) NC(=O)c1sc2ncn(Cc3nnn(C[C@H](O)c4ccc(Cl)cc4)n3)c(=O)c2c1Cl
q: Parameter check: reported IC50 is higher for which label, a or b ? Choose, then provide that item's label.
a: a
(a: 11 nM, b: 6 nM)

(1) O=C1NCCc2c1sc1ncn(Cc3nnn(C[C@H](O)c4cc5cc(F)ccc5o4)n3)c(=O)c21
(2) O=C1NCCc2c1sc1ncn(Cc3nnn(C[C@H](O)c4ccc(Cl)s4)n3)c(=O)c21
q: Parameter check: reported IC50 is higher for which label, 1 or 2 ? Choose, then provide that item's label.
a: 1

----------
assay: Assay B: Microsomal clearance; assay type: in vitro ADME, human; conditions: pooled liver microsomes, 1 μM test compound, 37° C.
human LM [% Qh] values for the molecules below.

molecule: Cc1c(C(N)=O)sc2ncn(Cc3nnn(C[C@H](O)c4cc5ccc(Cl)cc5o4)n3)c(=O)c12 [Example 8]
human LM [% Qh]: 43 % Qh

molecule: Cc1c(C(N)=O)sc2ncn(Cc3nnn(C[C@H](O)c4ccc(Br)cc4)n3)c(=O)c12 [Example 2]
human LM [% Qh]: <23 % Qh

molecule: O=C1NCCc2c1sc1ncn(Cc3nnn(C[C@H](O)c4cc5cc(Cl)ccc5o4)n3)c(=O)c21 [Example 18]
human LM [% Qh]: 32 % Qh

molecule: NC(=O)c1sc2ncn(Cc3nnn(C[C@H](O)c4ccc(Cl)cc4)n3)c(=O)c2c1Cl [Example 23]
human LM [% Qh]: <23 % Qh

molecule: CNC(=O)c1sc2ncn(Cc3nnn(C[C@H](O)c4ccc5c(c4)OCO5)n3)c(=O)c2c1C [Example 14]
human LM [% Qh]: <23 % Qh

human LM [% Qh] for CNC(=O)c1sc2ncn(Cc3nnn(C[C@H](O)c4ccc(C)cc4)n3)c(=O)c2c1C [Example 15] is <23 % Qh

human LM [% Qh] for O=C1NCCc2c1sc1ncn(Cc3nnn(C[C@H](O)c4ccc(Cl)s4)n3)c(=O)c21 [Example 17] is <23 % Qh

human LM [% Qh] for Cc1c(C(N)=O)sc2ncn(Cc3nnn(C[C@H](O)c4cc5cc(Cl)ccc5o4)n3)c(=O)c12 [Example 3] is <23 % Qh

human LM [% Qh] for Cc1c(C(N)=O)sc2ncn(Cc3nnn(C[C@H](O)c4ccc(F)c(F)c4)n3)c(=O)c12 [Example 5] is <23 % Qh

human LM [% Qh] for N#Cc1ccc([C@@H](O)Cn2nnc(Cn3cnc4sc5c(c4c3=O)CCNC5=O)n2)s1 [Example 21] is 27 % Qh

human LM [% Qh] for Cc1ccc([C@@H](O)Cn2nnc(Cn3cnc4sc5c(c4c3=O)CCNC5=O)n2)cc1 [Example 20] is <23 % Qh

human LM [% Qh] for Cc1ccc([C@@H](O)Cn2nnc(Cn3cnc4sc(C(N)=O)c(C)c4c3=O)n2)cc1 [Example 9] is <23 % Qh

human LM [% Qh] for O=C1NCCc2c1sc1ncn(Cc3nnn(C[C@H](O)c4ccc(Cl)cc4)n3)c(=O)c21 [Example 6] is <23 % Qh

human LM [% Qh] for CNC(=O)c1sc2ncn(Cc3nnn(C[C@H](O)c4ccc(Cl)s4)n3)c(=O)c2c1C [Example 16] is <23 % Qh

human LM [% Qh] for CNC(=O)c1sc2ncn(Cc3nnn(C[C@H](O)c4ccc(Cl)cc4)n3)c(=O)c2c1C [Example 13] is <23 % Qh

human LM [% Qh] for Cc1c(C(N)=O)sc2ncn(Cc3nnn(C[C@H](O)c4cc5ccccc5s4)n3)c(=O)c12 [Example 22] is 35 % Qh

human LM [% Qh] for Cc1c(C(N)=O)sc2ncn(Cc3nnn(C[C@H](O)c4ccc(Cl)s4)n3)c(=O)c12 [Example 4] is <23 % Qh

human LM [% Qh] for CN1CCc2c(sc3ncn(Cc4nnn(C[C@H](O)c5ccc(Cl)cc5)n4)c(=O)c23)C1=O [Example 7] is 36 % Qh

human LM [% Qh] for Cc1c(C(N)=O)sc2ncn(Cc3nnn(C[C@H](O)c4cc5ccc(F)cc5o4)n3)c(=O)c12 [Example 12] is <23 % Qh

human LM [% Qh] for Cc1c(C(N)=O)sc2ncn(Cc3nnn(C[C@H](O)c4cc5cc(F)ccc5o4)n3)c(=O)c12 [Example 11] is <23 % Qh

----------
assay: Assay C: Hepatocyte clearance; type: in vitro ADME, human; details: hepatocyte suspension, 1 μM test compound
measurement_kind: human Hepatocytes [% Qh] (% Qh)

mol_smiles: O=C1NCCc2c1sc1ncn(Cc3nnn(C[C@H](O)c4ccc(Cl)s4)n3)c(=O)c21
human Hepatocytes [% Qh] / % Qh: 22
//
mol_smiles: Cc1c(C(N)=O)sc2ncn(Cc3nnn(C[C@H](O)c4ccc5c(c4)OCO5)n3)c(=O)c12
human Hepatocytes [% Qh] / % Qh: 14
//
mol_smiles: Cc1ccc([C@@H](O)Cn2nnc(Cn3cnc4sc5c(c4c3=O)CCNC5=O)n2)cc1
human Hepatocytes [% Qh] / % Qh: 28

(1) O=C1NCCc2c1sc1ncn(Cc3nnn(C[C@H](O)c4cc5cc(Cl)ccc5o4)n3)c(=O)c21
(2) CN1CCc2c(sc3ncn(Cc4nnn(C[C@H](O)c5ccc(Cl)cc5)n4)c(=O)c23)C1=O
(3) CNC(=O)c1sc2ncn(Cc3nnn(C[C@H](O)c4ccc5c(c4)OCO5)n3)c(=O)c2c1C
q: Reorder: human Hepatocytes [% Qh], max to min. To answer, arrange all of the labels according to the requested order.
a: 1, 2, 3
